- TARGET OF ASSAY: UniProt P78329
- Sequence (P78329 5-520): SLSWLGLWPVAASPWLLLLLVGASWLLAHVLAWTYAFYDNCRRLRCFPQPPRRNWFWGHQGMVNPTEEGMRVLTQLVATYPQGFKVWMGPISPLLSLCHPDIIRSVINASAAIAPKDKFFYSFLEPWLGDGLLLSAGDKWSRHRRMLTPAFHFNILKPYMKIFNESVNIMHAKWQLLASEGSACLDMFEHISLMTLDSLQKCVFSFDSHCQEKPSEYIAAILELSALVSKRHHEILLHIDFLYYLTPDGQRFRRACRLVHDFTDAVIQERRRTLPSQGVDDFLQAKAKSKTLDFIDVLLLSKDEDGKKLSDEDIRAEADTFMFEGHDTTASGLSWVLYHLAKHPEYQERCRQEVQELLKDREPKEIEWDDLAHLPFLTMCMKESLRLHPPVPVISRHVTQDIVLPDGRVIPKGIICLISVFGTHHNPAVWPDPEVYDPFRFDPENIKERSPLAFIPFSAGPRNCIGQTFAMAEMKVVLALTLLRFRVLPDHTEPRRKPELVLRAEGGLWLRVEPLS
pIC50: −log10 of the molar value.
Is pIC50 at least 7? Then condition met. If not, condition not met.

Input line: // inclusive: pIC50 at least 7? input: CC(=O)NCCCC(=O)N1CCC[C@@H](COc2ccc(-c3ccn[nH]3)nc2)C1
Output line: condition not met

Input line: One more compound: CC(=O)NCCC(=O)N1CCC[C@@H](COc2ccc(-c3ccn[nH]3)nc2)C1
Output line: condition not met

Input line: One more compound: O=C(c1cc(CO)ccn1)N1CCC[C@@H](COc2ccc(-c3ccn[nH]3)nc2)C1
Output line: condition not met

Input line: One more compound: CN(C)C(=O)N1CCC(COc2ccc(-c3ccn[nH]3)nc2)CC1
Output line: condition met

Input line: One more compound: O=C(C1CCOCC1)N1CCC[C@@H](COc2ccc(-c3ccn[nH]3)nc2)C1
Output line: condition not met

Input line: One more compound: CC1(C(=O)N2CCC(COc3ccc(-c4ccn[nH]4)nc3)CC2)CC1
Output line: condition not met

Input line: One more compound: CS(=O)(=O)c1cc(F)cc(COc2ccc(-c3ccn[nH]3)nc2)c1
Output line: condition not met

Input line: One more compound: CC(=O)N1CCN(CCOc2ccc(-c3ccn[nH]3)cc2)CC1 [Compound A, reference compound]
Output line: condition not met

Input line: One more compound: CN(C)C(=O)NCCC(=O)N1CCC[C@@H](COc2ccc(-c3ccn[nH]3)nc2)C1
Output line: condition not met

Input line: One more compound: CC(=O)N1CC[C@@H](CCOc2ccc(-c3ccn[nH]3)nc2)C1
Output line: condition met

Input line: One more compound: COC(=O)N1CCC(CCOc2ccc(-c3ccn[nH]3)nc2)C(C)C1 (single isomer, unassigned) [Example 1-16-1]
Output line: condition not met

Input line: One more compound: O=C(CC1CCCCC1)N1CCC[C@@H](COc2ccc(-c3ccn[nH]3)nc2)C1
Output line: condition met

Input line: One more compound: O=S(=O)(CCCN1CCOCC1)c1cccc(COc2ccc(-c3ccn[nH]3)nc2)c1
Output line: condition met

Input line: One more compound: CC(=O)N[C@H]1CC[C@@H](Oc2ccc(-c3ccn[nH]3)nc2)CC1
Output line: condition not met

Input line: One more compound: O=C(c1ccccc1)N1CCC(CCOc2ccc(-c3ccn[nH]3)nc2)CC1
Output line: condition not met
